# test description: Stability of the compound in liver microsomes (mouse)
# Assay type: in vitro ADME, CD-1 mouse
# condition context: T = 60 min; 1 μM compound, 0.5 mg protein/mL
measured metric: Mouse liver microsomes Residual (T = 60 min)
# output: number + unit

Record request: Mouse liver microsomes Residual (T = 60 min) value, item `COc1c([C@H]2[C@H](C(=O)Nc3ccc[n+]([O-])c3)N[C@@](C)(C(F)(F)F)[C@H]2C)ccc(F)c1F`
75.4%

Again, but for `COc1c([C@H]2[C@H](C(=O)Nc3cccc(S(N)(=O)=O)c3)N[C@@](C)(C(F)(F)F)[C@H]2C)ccc(F)c1F`
62.9%

Again, but for COc1c([C@H]2[C@H](C(=O)Nc3ccnc(C(N)=O)c3)O[C@@](C)(C(F)(F)F)[C@H]2C)ccc(F)c1F [VX-548, reference compound]
56.3%

Again, but for `COc1c([C@H]2[C@H](C(=O)Nc3ccnc(C(N)=O)c3)N[C@@](C)(C(F)(F)F)[C@H]2C)ccc(F)c1F`
37.1%
